target: T1, Human SIRPαV1 (NP_542970.1), Extracellular Domain + His-Tag (human, UniProt P78324 31-373); assay: SPR, antibody captured on Protein A/G, ECD-His analyte, 1:1 fit
T1 construct: also called huSIRPαV1; hSIRPαV1; not shown: His-Tag
T1 sequence (P78324 other isoform, or with tags, fused parts or gaps): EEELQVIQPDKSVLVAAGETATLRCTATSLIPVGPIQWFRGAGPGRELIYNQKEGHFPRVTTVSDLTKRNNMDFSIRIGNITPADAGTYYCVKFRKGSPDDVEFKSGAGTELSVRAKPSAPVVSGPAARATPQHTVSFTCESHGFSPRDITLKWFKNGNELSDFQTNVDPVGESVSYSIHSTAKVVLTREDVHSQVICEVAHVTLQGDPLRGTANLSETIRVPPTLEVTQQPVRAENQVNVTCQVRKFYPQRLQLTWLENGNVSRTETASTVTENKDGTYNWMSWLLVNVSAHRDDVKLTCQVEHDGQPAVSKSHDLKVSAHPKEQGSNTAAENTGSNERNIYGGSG
Measured metric: koff (s⁻¹)
Entry rule: numbers only, all in s⁻¹.

Form field koff, entry Antibody E13 (antibody, human IgG1, kappa, L234A L235A, V domains shown) VH: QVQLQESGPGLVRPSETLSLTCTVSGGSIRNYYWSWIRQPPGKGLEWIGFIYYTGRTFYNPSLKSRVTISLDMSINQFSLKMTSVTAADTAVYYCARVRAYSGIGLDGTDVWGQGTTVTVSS VL: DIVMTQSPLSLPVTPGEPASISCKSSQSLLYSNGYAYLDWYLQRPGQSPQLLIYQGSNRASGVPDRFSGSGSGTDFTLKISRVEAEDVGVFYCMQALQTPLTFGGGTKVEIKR : 0.000671
